B1: POU domain, class 3, transcription factor 2, residues 356 to 411; numbered along this chain, P20265 (parent)
chain: KKRTSIEVSVKGALESHFLKCPKPSAQEITSLADSLQLEKEVVRVWFCNRRQKEKR

# Variants of: B1
# assayName: abundance fitness (aPCA) (normalised: wild type 0, dead -1); higher = more abundant; growth selection in yeast, the domain comes from the species named
# setupConditions: Homo sapiens
measureName: abundance fitness

> print(dat)
    variantdescriptor  numericvalue
 1               S25P        -0.579
 2               A33Q         -1.12
 3               S25G        -0.194
 4               P24I        -0.919
 5               C21K        -0.478
 6               R51P        -0.831
 7               G12A         0.124
 8               K23C         0.023
 9               E15T        -0.788
10               V45H         0.089
11               I29T        -0.593
12               R50M        -0.545
13               A26S        -0.134
14               N49Y        -0.396
15               A13P        -0.442
16               Q37A        -0.054
17               K20W        -0.605
18                E7W        -0.242
19               L36A        -0.929
20                T4Y        -0.209
21                V8S         0.096
22               P22V        -0.713
23               E15H        -0.805
24               V10E        -0.068
25               F47Q            -1
26               E28F        -0.511
27               V45G        -0.048
28               V10A        -0.036
29               S16Q         0.073
30               K20L        -0.322
31               A26C        -0.244
32               E28K        -0.413
33               T30I        -0.237
34               Q27T          0.02
35               A13H        -0.196
36               N49H         -0.08
37               C48F         0.078
38               E41K        -0.446
39                V8Q         0.069
40               R51S        -0.323
41               A13L        -0.074
42               E39F         -1.01
43               L32K        -0.927
44               R56W        -0.234
45               A33P        -0.794
46               E41R        -0.337
47               K23L        -0.203
48               R50C        -0.868
49               P22R        -0.367
50               S25K        -0.318
51               Q27R        -0.007
52               P24Q         -0.86
53               F47L        -0.722
54               F47Y        -0.328
55               L14R        -0.855
56               R50N        -0.907
57               E15W        -0.822
58               Q37S        -0.032
59                K2L        -0.222
60               W46S        -0.698
61               A13C        -0.044
62               Q37T        -0.316
63               S25I        -0.793
64               A26P        -0.224
65               V42G        -0.453
66               P22D        -0.122
67                E7C         0.014
68               K20G        -0.466
69               L38P        -0.969
70               L14A         -1.04
71               P22W        -0.699
72               E41P        -0.697
73               S35M        -0.095
74               R44G        -0.188
75               L19N        -0.075
76               N49W         -0.18
77               L32S        -0.875
78               N49F        -0.515
79               N49R        -0.135
80                S5M        -0.018
81               L14N        -0.632
82               S35T         0.026
